The reported numbers originate from paper PMC6044503.

- System Tested: human Y2R (Homo sapiens, UniProt P49146)
- Sequence (P49146 1-381): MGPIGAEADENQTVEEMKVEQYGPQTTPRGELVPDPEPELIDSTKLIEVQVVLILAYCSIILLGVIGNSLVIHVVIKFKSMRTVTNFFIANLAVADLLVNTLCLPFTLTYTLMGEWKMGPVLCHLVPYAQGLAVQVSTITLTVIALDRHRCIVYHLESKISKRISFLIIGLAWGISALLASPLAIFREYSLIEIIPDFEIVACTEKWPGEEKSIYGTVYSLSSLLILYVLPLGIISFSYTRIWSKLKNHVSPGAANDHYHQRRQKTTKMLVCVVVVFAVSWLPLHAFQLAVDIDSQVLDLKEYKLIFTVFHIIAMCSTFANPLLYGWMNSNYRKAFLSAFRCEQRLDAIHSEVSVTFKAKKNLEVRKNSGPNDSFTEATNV
pIC50: −log10 of the molar value. Where a SMILES comes first, the peptide text is derived from it. [ ]: non-standard residue; d: D form. The star is where a group is joined. Cyclohexanecarbonyl = O=C(C1CCCCC1)*; Cha = N[C@@H](CC1CCCCC1)C(=O)O; Aib = CC(C)(N)C(=O)O; Bz = O=C(c1ccccc1)*
Metric: pIC50

Molecule | Endpoint Value
CC[C@H](C)[C@H](NC(=O)[C@H](CC1CCCCC1)NC(=O)[C@H](Cc1c[nH]cn1)NC(=O)[C@H](CCCNC(=N)N)NC(=O)c1ccccc1)C(=O)N[C@@H](CC(N)=O)C(=O)N[C@@H](CC(C)C)C(=O)N[C@H](C(=O)N[C@H](C(=O)N[C@@H](CCCNC(=N)N)C(=O)N[C@@H](CCC(N)=O)C(=O)N[C@@H](CCCNC(=N)N)C(=O)N[C@@H](Cc1ccc(O)cc1)C(N)=O)[C@@H](C)O)[C@@H](C)CC [Compound 3] (Bz-RH[Cha]INLITRQRY-NH2) | 7.82
C[C@@H](O)[C@H](NC(=O)C(C)(C)NC(=O)[C@H](Cc1c[nH]c2ccccc12)NC(=O)[C@H](CC(N)=O)NC(=O)[C@H](CC1CCCCC1)NC(=O)[C@H](CC1CCCCC1)NC(=O)[C@H](Cc1c[nH]cn1)NC(=O)[C@H](CCCNC(=N)N)NC(=O)C1CCCCC1)C(=O)N[C@@H](CCCNC(=N)N)C(=O)N[C@@H](CCC(N)=O)C(=O)N[C@@H](CCCNC(=N)N)C(=O)N[C@@H](CC1CCCCC1)C(N)=O [Compound 27] (Cyclohexanecarbonyl-RH[Cha][Cha]NW[Aib]TRQR[Cha]-NH2) | 8.05
CC[C@H](C)[C@H](NC(=O)[C@H](CC1CCCCC1)NC(=O)[C@H](Cc1c[nH]cn1)NC(=O)[C@H](CCCNC(=N)N)NC(=O)C1CCCCC1)C(=O)N[C@@H](CC(N)=O)C(=O)N[C@@H](Cc1c[nH]c2ccccc12)C(=O)N[C@H](C(=O)N[C@H](C(=O)N[C@@H](CCCNC(=N)N)C(=O)N[C@@H](CCC(N)=O)C(=O)N[C@@H](CCCNC(=N)N)C(=O)N[C@@H](CC1CCCCC1)C(N)=O)[C@@H](C)O)[C@@H](C)CC [Compound 13] (Cyclohexanecarbonyl-RH[Cha]INWITRQR[Cha]-NH2) | 8.17
CC[C@H](C)[C@H](NC(=O)[C@H](CC1CCCCC1)NC(=O)[C@H](Cc1c[nH]cn1)NC(=O)[C@H](CCCNC(=N)N)NC(=O)c1ccccc1)C(=O)N[C@@H](CC(N)=O)C(=O)N[C@@H](Cc1c[nH]c2ccccc12)C(=O)NC(C)(C)C(=O)N[C@H](C(=O)N[C@@H](CCCNC(=N)N)C(=O)N[C@@H](CCC(N)=O)C(=O)N[C@@H](CCCNC(=N)N)C(=O)N[C@@H](CC1CCCCC1)C(N)=O)[C@@H](C)O [Compound 11] (Bz-RH[Cha]INW[Aib]TRQR[Cha]-NH2) | 7.96
CC(C)C[C@H](NC(=O)[C@H](CC(N)=O)NC(=O)[C@H](CC1CCCCC1)NC(=O)[C@H](CC1CCCCC1)NC(=O)[C@H](Cc1c[nH]cn1)NC(=O)[C@H](CCCNC(=N)N)NC(=O)C1CCCCC1)C(=O)NC(C)(C)C(=O)N[C@H](C(=O)N[C@@H](CCCNC(=N)N)C(=O)N[C@@H](CCC(N)=O)C(=O)N[C@@H](CCCNC(=N)N)C(=O)N[C@@H](CC1CCCCC1)C(N)=O)[C@@H](C)O [Compound 22] (Cyclohexanecarbonyl-RH[Cha][Cha]NL[Aib]TRQR[Cha]-NH2) | 7.96
